B1: ANKRD44 (parent)
chain: FHCIETLVTTGANVNETDDWGRTA

Variants of: B1
Assay: protein stability index of a GFP-peptide fusion (GPS, HEK-293T) (PSI 1-6); higher = more stable;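 note: lentivirally expressed fusions sorted by FACS into six bins by GFP to DsRed ratio, PSI derived from sequencing read proportions per bin multiplied by bin number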
Conditions: c terminus: a fixed tail appended
Decide by protein stability index: equal to or exceeding 2 means 1, less means 0.

Query block: Reported protein stability index reaches at least 2 for FHCIETLVTTWANVNETDDWGRTA [G11W] ?
Result block: 1

Query block: What about this variant? FHCIETLVTTGAAVNETDDWGRTA [N13A]
Result block: 1

Query block: What about this variant? FHSIETLVTTGANVNETDDWGRTA [C3S]
Result block: 1

Query block: What about this variant? FHCIETLVTIGANVNETDDWGRTA [T10I]
Result block: 0

Query block: What about this variant? NHCIETLVTTGANVNETDDWGRTA [F1N]
Result block: 1

Query block: What about this variant? FHGIETLVTTGANVNETDDWGRTA [C3G]
Result block: 1

Query block: What about this variant? FHCIETLVTTGANVNTTDDWGRTA [E16T]
Result block: 0

Query block: What about this variant? FHCIETQVTTGANVNETDDWGRTA [L7Q]
Result block: 1

Query block: What about this variant? FHCLETLVTTGANVNETDDWGRTA [I4L]
Result block: 1

Query block: What about this variant? FHCIETLVTTGANVNHTDDWGRTA [E16H]
Result block: 1

Query block: What about this variant? FHCIETLVTTGANVWETDDWGRTA [N15W]
Result block: 1

Query block: What about this variant? FHCMETLVTTGANVNETDDWGRTA [I4M]
Result block: 1

Query block: What about this variant? FHCIEELVTTGANVNETDDWGRTA [T6E]
Result block: 1

Query block: What about this variant? FHCEETLVTTGANVNETDDWGRTA [I4E]
Result block: 1

Query block: What about this variant? DHCIETLVTTGANVNETDDWGRTA [F1D]
Result block: 1

Query block: What about this variant? FHCIETLVTTGANVNETDDWGVTA [R22V]
Result block: 1

Query block: What about this variant? FHCIETLVTTSANVNETDDWGRTA [G11S]
Result block: 0

Query block: What about this variant? FHCIETLVTTGANVNETDDWGRPA [T23P]
Result block: 1

Query block: What about this variant? FHCIETLVTTGANVNLTDDWGRTA [E16L]
Result block: 0

Query block: What about this variant? FHCIETLVTTIANVNETDDWGRTA [G11I]
Result block: 1

Query block: What about this variant? FHCIGTLVTTGANVNETDDWGRTA [E5G]
Result block: 1

Query block: What about this variant? FHCDETLVTTGANVNETDDWGRTA [I4D]
Result block: 1

Query block: What about this variant? FHCIETLVTTGANVNETDDWGRKA [T23K]
Result block: 1

Query block: What about this variant? FHCIETLVTTGANVNETDDSGRTA [W20S]
Result block: 1

Query block: What about this variant? FHCIETLVTTGANVNETDDWGRMA [T23M]
Result block: 0

Query block: What about this variant? FHCIETLVTTGANVNETDDWGSTA [R22S]
Result block: 1

Query block: What about this variant? FHCIETLSTTGANVNETDDWGRTA [V8S]
Result block: 1

Query block: What about this variant? FHCNETLVTTGANVNETDDWGRTA [I4N]
Result block: 1

Query block: What about this variant? FHCFETLVTTGANVNETDDWGRTA [I4F]
Result block: 1

Query block: What about this variant? FHCIETLVTMGANVNETDDWGRTA [T10M]
Result block: 0

Query block: What about this variant? FHCIETLVTTGANVTETDDWGRTA [N15T]
Result block: 1

Query block: What about this variant? FHCIETLVTTGANVLETDDWGRTA [N15L]
Result block: 1

Query block: What about this variant? FHCIETAVTTGANVNETDDWGRTA [L7A]
Result block: 1

Query block: What about this variant? FHCIETLVTTGANVMETDDWGRTA [N15M]
Result block: 0

Query block: What about this variant? FHCIETLVTTGANVNEIDDWGRTA [T17I]
Result block: 1

Query block: What about this variant? FHCIETLVTTPANVNETDDWGRTA [G11P]
Result block: 1

Query block: What about this variant? FHIIETLVTTGANVNETDDWGRTA [C3I]
Result block: 0

Query block: What about this variant? PHCIETLVTTGANVNETDDWGRTA [F1P]
Result block: 1

Cited source for all entries: the supplement of paper PMC10567573
